Tested on: Streptococcus pneumoniae
Exam item: assign true (1) to entries whose MIC is below 50 µg/mL and false (0) to entries at or above 50 µg/mL. Note that a value of exactly 50 µg/mL receives false (0).

Solved entries (count: 6):
INSERT INTO assay_data (cpdsmiles, studysystem, classification) VALUES
  ('CCn1cc(C(=O)O)c(=O)c2c(N)nc(N3CCN(C)CC3)nc21', 'Streptococcus pneumoniae', 'false (0)'),
  ('CCn1cc(C(=O)O)c(=O)c2cc(F)c(N3CCN(C(C)=N)CC3)cc21', 'Streptococcus pneumoniae', 'true (1)'),
  ('CCn1cc(C(=O)O)c(=O)c2cc(F)c(F)c(F)c21', 'Streptococcus pneumoniae', 'false (0)'),
  ('CCn1cc(C(=O)O)c(=O)c2cc(F)c(N3CCCC3)cc21', 'Streptococcus pneumoniae', 'true (1)'),
  ('CCn1cc(C(=O)O)c(=O)c2cc(F)c(N3CCNCC3)c(F)c21', 'Streptococcus pneumoniae', 'true (1)'),
  ('CCn1cc(C(=O)O)c(=O)c2cc(F)c(N3CCC(C(N)=O)CC3)cc21', 'Streptococcus pneumoniae', 'true (1)');

Pending compound:
Task item: Given `CCn1cc(C(=O)O)c(=O)c2cc(F)c(NC)cc21` , is recorded MIC strictly lower than 50 µg/mL?
Reply: false (0)
